# experiment: in vitro
# condition_info: human, hela cells, % viability
parameter: viability at 28.5 h, 10 µM (%)
Report only the number, with the unit % understood.

Before answering, review these 6 worked examples.
> print(dat)
                                   compound  measured.result
1  c1nc(Nc2ccc3[nH]ccc3c2)cc(-c2ccc(N3CCOCC3)cc2)n1             91.1
2     CCCN1C(C)=NS(=O)(=O)c2cc(C(=O)O)ccc21             92.4
3  O=C(O)c1ccc2c(c1)C(=O)N(c1ccc(C3(c4ccc(N5C(=O)c6ccc(C(=O)O)cc6C5=O)cc4)c4ccccc4-c4ccccc43)cc1)C2=O             92.2
4  C=CCOC(=O)C1=C(C)OC(N)=C(C(=O)OCc2ccccc2)C12C(=O)Nc1ccccc12 (centres unmarked)             90.9
5  CC(C)C(=O)N[C@@H](C)Cn1nc(-c2cccs2)oc1=O             88.3
6  Cc1nn(CC(=O)N(C)CCCc2nccn2C)c(=O)c2ccccc12             92.2

Looking up Nc1nonc1-c1nc2ccccc2[nH]1 , I see its viability at 28.5 h, 10 µM listed as 89.4

Record Cc1cc2c(o1)c1cnn(CC(=O)N(C)C)c(=O)c1n2C(C)C , field viability at 28.5 h, 10 µM: 88.9

The compound listed as CC1CCN(Cc2ccc(-c3nnn(CC(=O)NCc4ccc(C(F)(F)F)nc4)n3)cc2)CC1 [CBK149721T] shows viability at 28.5 h, 10 µM equal to 112

Per the records, this compound ( Cc1cccc2c3c([nH]c12)C1(CCN(CC2CC2)C1)NCC3 (centres unmarked) ) has viability at 28.5 h, 10 µM equal to 95.8

For COCc1cccc(-c2ccc(C(=O)N(C)CCN(C)C)c(N(C)C)n2)c1 the compound record lists viability at 28.5 h, 10 µM as 103

* * *

# experiment: in vitro
# condition_info: human, hela cells, % viability
Measured viability at 28.5 h, 10 µM, listed per entry.
Report the value in % with no unit label.

As a guide, the following entries are already answered.
> print(dat)
                                   compound                   parameter  measured.result
1         COc1ccc(Sc2nccc(C(F)(F)F)n2)cc1OC  viability at 28.5 h, 10 µM             90.4
2  CC1CCc2c(sc3nc(CN4CCCCC4C)[nH]c(=O)c23)C1 (stereo not drawn)  viability at 28.5 h, 10 µM             89.3
3  Cc1c(C)n(Cc2ccccc2)c2ccc(C(=O)OCCCN(C)C)cc12  viability at 28.5 h, 10 µM             91.7
4  Cc1ccc(NC(=O)N2CCCC(C(=O)O)C2)cc1 (stereo not drawn)  viability at 28.5 h, 10 µM             89.5
5  Cc1ccc(Cl)cc1NC(=O)c1cc(NC(=O)C2CCCCC2C(=O)O)ccc1N1CCCCC1 (stereo not drawn)  viability at 28.5 h, 10 µM               87

The value of viability at 28.5 h, 10 µM measured for the compound Cc1ccc(C(=O)NCc2ccco2)c(N2CCOCC2)n1 turned out to be 89.9

Note to self: viability at 28.5 h, 10 µM recorded for COc1ccc(C2N(CC(N)=O)CCOC23CCN(C(=O)c2ccc4ccccc4c2)CC3)cc1 (stereo not drawn) was 96.9
